inhibition reference
target: Tyrosine-protein kinase Fgr (Homo sapiens); settings: at 0.1 µM;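 further: reported values are mean percent inhibition of FGR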

molecule: Nc1nc(-c2ccc3c(c2)C(=Cc2cc(Br)c(O)c(Br)c2)C(=O)N3)cs1
resultType: inhibition
observedResult: -0.02%

molecule: O=C(Nc1n[nH]c2nc(-c3ccco3)c(Br)cc12)C1CC1
resultType: inhibition
observedResult: 2.88%

molecule: CS(=O)(=O)CCN(CC#N)Cc1ccc(-c2ccc3ncnc(Nc4ccc(OCc5cccc(F)c5)c(Cl)c4)c3c2)o1
resultType: inhibition
observedResult: 0.96%

molecule: O=C1NC(=O)C(c2cccc(Cl)c2)=C1Nc1ccc(O)c(Cl)c1
resultType: inhibition
observedResult: -2.2%

molecule: COc1cc2ncn(-c3cc(O[C@H](C)c4ccccc4Cl)c(C(N)=O)s3)c2cc1OC
resultType: inhibition
observedResult: 8.54%

molecule: Cc1nn(C)c2cc(N(C)c3ccnc(Nc4cccc(S(N)(=O)=O)c4)n3)ccc12
resultType: inhibition
observedResult: 14.8%

molecule: COc1cc2ncn(-c3cc(OCc4ccccc4Cl)c(C(N)=O)s3)c2cc1OC
resultType: inhibition
observedResult: 3.61%

molecule: CCCN1CCC(Oc2cc(Nc3nc(Nc4cccc(F)c4C(N)=O)c4cc[nH]c4n3)c(OC)cc2Cl)CC1
resultType: inhibition
observedResult: 0.61%

Next up:
q: Need inhibition of Cn1cc(C=C2C(=O)Nc3cccnc32)c2ccccc21 , thanks.
a: 7.5%
